experiment: Toxicity liver stage against HepG2, at 10uM; type: cell-based; design: test concentration 10 uM, cell line HepG2-A16-CD81EGFP; details: human, HepG2-A16-CD81EGFP cells; read-out: INHIBITION
Reported cytotoxicity at 10 µM values are given for each entry in this list.
Entry rule: numbers only, all in %.

Please review the entries below; each comes with its answer.
| compound | unit | cytotoxicity at 10 µM |
| --- | --- | --- |
| CC(O)(CNC(=O)c1cccnc1-n1cccn1)c1ccco1 (stereo not drawn) | % | 3.09 |
| CNCC[C@H]1CC(C)(C)Oc2ccc(OCC3CC3)cc21 | % | -9.44 |

Then this compound:
Problem: I am curious: what cytotoxicity at 10 µM value has been reported for O=C(O)C1(n2cccn2)CCN(c2nc(-c3ccccc3)no2)CC1 ?
Result: 7.47
